What PBM binding z-score was measured for each of the following?
test system: LXRa:RXRa (NR concentration 270 nM, RXRa partner concentration 90 nM); assay: PBM binding z-score (relative to random genomic background probes); higher = stronger binding; sequences stand for … in GC…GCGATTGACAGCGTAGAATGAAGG
Please give the numeric answer without any surrounding text.

According to the records, this sequence CAGCCTAGGTCAGGGCGAGTATAGGAGGAACGTT displays PBM binding z-score of 0.876

The measured PBM binding z-score associated with CCTTACGGGTCACTCCAGGGTATAGCATCGGAGT reads 6.8

Lab note: measured PBM binding z-score of CCTACTAGGCCACGAAAGGTCATTGATTCAGTGA was 5.66

Record ATCTCTAGGTAACAAGTTGAGTGAAAGAGAGGAC , field PBM binding z-score: 0.354

Record CGAACTAGGTCATCCAGGACAGTGAATACATTGA , field PBM binding z-score: 2.79

Looking up CGAAGTAGGTCATTGACAGGACAGTGAATAGTAA , I found its PBM binding z-score recorded as 3.56

The sequence listed as TCTAGTTTGTCAAAGGTCACACACTCGAAATGCG shows PBM binding z-score equal to 5.79

Per the record, GTACCAAGCTGAATAGGTCGTTGATGAGTAGGCG has PBM binding z-score of -0.288

// PBM binding z-score value for TCGAGTAGGTTACCATTGGGGCATTCAGCTTTCT : 1.68

# sequence ATCTCTAGGTAAAGATAGATCAGTGAATGCAAAT ; its PBM binding z-score = 0.581

Field PBM binding z-score (entry ACTCGGAGGCCAAAGGTCAGAGCTACGCCAGTGA ) reads 4.5

Form: sequence = CCTAGTTGTTCAAGGTCACACACGCTATAGGTAC ; PBM binding z-score = 4.93

* * *

system: PPARa:RXRa (NR concentration 270 nM, RXRa partner concentration 90 nM); assay: PBM binding z-score (relative to random genomic background probes); higher = stronger binding; sequences stand for … in GC…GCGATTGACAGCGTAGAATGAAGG
Could you please report measured PBM binding z-score for the items listed next?
// keep it numeric: no unit symbol after the value

Lab note: measured PBM binding z-score of CGTGCTAGGTCAATGGTCAGCTAAAGCAGCTCGC was 3.03

For ACAGACAGGTGAGTGAAGGTAACTCTGCTGGACG the sequence record lists PBM binding z-score as 0.435

So, TCTAGTTAGTCAAAGGTCACACACTCGAAATGCG ? Its PBM binding z-score was 5.98

The value of PBM binding z-score measured for the sequence ATCTCTAGGTAAAGACAGTTCAGTGAATGCAAAT turned out to be 0.628

Per the records, this sequence ( CCTACCGGGCCAAGGTCATTGATCAGTCAAAGCA ) has PBM binding z-score equal to 3.66

Recorded result, CGTCCAAGGTCATAGGAGGTCGGTGAAGACAGAT , PBM binding z-score: 5.36

Briefly, PBM binding z-score measured for ACTAGCAGGCCAAGGGTCTCTCAAGATTAGTCCG : 0.948

Value of PBM binding z-score reported for the sequence ATCTCTAGGTGACAAGTTCAGTGAAAGAGAGGAC is 2.58

// sample CCGACTGGGGCAACGTTACCATAACGCACAGCCA , its PBM binding z-score was 0.0876

PBM binding z-score reading for AGTCAAACTTCATCTAGGTAACGTAAGATATGCT : -0.0609

Item: CCTTTCGGGTCACTCCAGGTTATAGCATCGGAGT | PBM binding z-score: 4.58

Reported PBM binding z-score for AGAATGACGTTATACGTAGATCAGGGAAGAAAGT was -0.611

Entry GCAGACAGGTGAAACGCAGGTAACGCAGGGTGGC , PBM binding z-score reported as 0.749

Field PBM binding z-score (entry CGTCCATGGTCAAGGTCAGTGAAAGAGACTCGAA ) reads 2.38

AGTCAAAGTTCACTAGATAACGTAAGATTCAGCT yielded PBM binding z-score of 3.97

response.value for CGTCCAAGGTCAATGTCAGTGAAAGAGACTCGAA (field: PBM binding z-score) = 5.35

Summary for this sequence, CCAACTAGGTCAAGGACAGTGAATCTCCGCACGC : PBM binding z-score is 3.96

Lab book: PBM binding z-score of ATGTCTAGGTAAAAGTTCAGTGAATCCCGAGGAT noted as 3.76

Lookup result for TAGCCTAGGTCATTGGGCCACTATAGTACGCATC ; measured PBM binding z-score: 3.99

Recorded PBM binding z-score (sequence ATCTCTAGGTAATAGTTCAGTGAATCCCGAGGAT ): 3.1

Lab note: AGTCAAAGTTCATCTAGGTACCGTAAGATATGCT gave PBM binding z-score of 4.76

Value of PBM binding z-score reported for the sequence CCTTACGTGTCAAGGTTATAGCACGGGTGGTACG is 1.36

Summary for this sequence, GCTTACGCGTCAAAGGTTATAGCATGAATAGAAT : PBM binding z-score is 3.38

So for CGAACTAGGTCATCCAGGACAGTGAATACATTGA , the logged PBM binding z-score turned out to be 4.91

Item: CGATCGAGGGCATGAGTTGATAGCAAATGCCGAT | PBM binding z-score: 1.22

In plain terms, TAGCCTAGGTCAGGGGCCAGTATACCACGCGAAC has a documented PBM binding z-score of 2.61

* * *

Please respond with reported PBM binding z-score for every item in the list.
tested on: PPARg:RXRa 270nM:90nM, anti-RXR (NR concentration 270 nM, RXRa partner concentration 90 nM); assay: PBM binding z-score (relative to random genomic background probes); higher = stronger binding; sequences stand for … in GC…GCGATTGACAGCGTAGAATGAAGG
# output: bare number, no unit

Looking up ATCGAAAGGTCGAGGTGAGTAGAGAGAAAGGGAA , I see its PBM binding z-score listed as 3.59

// TGAATGAGGTTAACGATCAGGGAACGTGGCGTCG : PBM binding z-score value = 2.48

Reported PBM binding z-score for TAGCCTAGGTCATTCAGGGGCCAGTATAGAAAGC was 2.59

PBM binding z-score for CCTACTGGGCCATCAGGTCATTGATATCAACGTT is 3.7

Record AGAACGAGGGCGATGAGTTGATAGCACGGGTGGC , field PBM binding z-score: -0.212

GET /value?item= CCTGCTAGGTCAATGGTCAGCTGAAGCAGCTCGC &field=PBM binding z-score returns 5.35

Sure, the documented PBM binding z-score for ATCTCTAGGTAAGACTCAGATCAGTGAAGAACGC is 0.0019

The reported PBM binding z-score of the sequence CATACAGGGTCAGCTAGGCTAGAGTAGGGACGGC was 2.93

# sequence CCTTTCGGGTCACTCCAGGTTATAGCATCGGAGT ; its PBM binding z-score = 3.78

Just so you know, measured PBM binding z-score for GCTTGTAGATCAAGGTTAAGTAAGACTAAGCTAA came out at 2.27

GET /value?item= TAGCCTAGGTCATTCAGGTGCCAGTATAGAAAGC &field=PBM binding z-score returns 2.27

Recorded result, ACAACGAGGGCACGCTGAGTTGATAGCAGAGTAG , PBM binding z-score: 1.19

* * *

Kindly supply the reported PBM binding z-score values for the records listed here.
test system: LXRb:RXRa (NR concentration 270 nM, RXRa partner concentration 90 nM); test: PBM binding z-score (relative to random genomic background probes); higher = stronger binding; sequences stand for … in GC…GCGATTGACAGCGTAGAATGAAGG

Value of measured PBM binding z-score for the entry TCATATAGGTAAACAGGTCAAAGTCCGTAAGTTA : 3.12

GET /value?item= GCATATTGGTAATACAAGGTGAAAGTCCGATTGT &field=PBM binding z-score returns 0.0375

response.value for CGAACTAGGTCAGAACAGGACAGTCAAGGATGAT (field: PBM binding z-score) = 0.627

The recorded PBM binding z-score for entry CCTACTGGTCCAAAGGTCATTGATTCCAATGCTC equals 5.02

The recorded PBM binding z-score for CCTCACGGGTCAAGGTTATAGCACGGGTGGTACG is 2.74

Data point: AGTCAAAGTTCATCTACGTAACGTAAGATATGCT ; PBM binding z-score = 3.97

So for TCTGCTAGGTCGACGATGGTCAGCTAATCTGCTA , the logged PBM binding z-score turned out to be -0.332

get_value(item= CGTCCAAGGTCCGAGAGGTCAGTGAATGCCGAGT , readout=PBM binding z-score) returns 1.86

Sample TCTGTTAGGTCAACGATGGTCAGCTAATCTGCTA ; PBM binding z-score observed: 2.6

Per the records, this sequence ( ATCGAAAGGTCGAAGGTGAGTTTACCCACCCGAA ) has PBM binding z-score equal to 2.89

Record GCGACTGGGGCAAAGCAGGTTACCGTAAGGTTGG . Reported PBM binding z-score: 0.135

The measured PBM binding z-score associated with ATCTCTAGGTAAGTCTCAGTTCAGTGAAGAACGC reads 0.383

For this sequence ( CCGAGTAGGTTATAGGGCATTCAGGCAACGGTGA ), measured PBM binding z-score is 0.765

The recorded PBM binding z-score for entry CCTAGCAGGCCAATCTGGGTCACTAAAGGCTTGA equals 0.511

Briefly, PBM binding z-score measured for CCGAGTAGGTTATTGGGCATTCAGGCAACGGTGA : -0.0396

Please fill in: PBM binding z-score reported for AGAACGAGGGCAATGAGTTGACAGCACGGGTGGC = -0.388

Value of PBM binding z-score reported for the sequence TCTTGTAGATCTAAGGTTAAGAAAGCCGAAGCCT is 1.16

PBM binding z-score for ACTAGTTGGTCAGCTGAGGTCAGACACAATTCGG is 2.03

// recorded PBM binding z-score for CGTCCAAGGTTAGCAGGTCAGTGAAAGCGACGTG : 0.92

Reported PBM binding z-score ( TAGCCTAGGTCATGGGCCCGTATACCACGCGAAC ) = 2.77

The reported PBM binding z-score of the sequence CCAGACAGGTGAAAGGTAACGCAGTCTGGTACGC was 0.898

GET /value?item= TCTTGTAGTTCAACAGGAGGTTAAGAAAGATCGA &field=PBM binding z-score returns 1.78

Recorded result, CGTCCAAGGTCAATGCTAGGTCAGAGAAAGCATT , PBM binding z-score: 4.32

// field: PBM binding z-score; key: CCGACTGGGGCAGAAAGGTTACCATACCATCCGG ; value = 0.947

Value of PBM binding z-score reported for the sequence TCGAGTAGGTTGCCAATGGGGCATTCAGCTTTCT is -0.313

Entry CCTGCTAGGTCAATGGTGAGCTAAAGCAGCTCGC — recorded PBM binding z-score = 0.808

# sequence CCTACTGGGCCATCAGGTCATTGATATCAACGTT ; its PBM binding z-score = 1.56

The recorded PBM binding z-score for entry TCTCGGAGGGCACGAAGGTCAGAGCTTTCCAGAG equals 1.7

Reported PBM binding z-score of TAGCCTAGGTCATTGGGCCAATATAGTACGCATC : 2.95

# PBM binding z-score (sequence: GGAACGAGGGAAAAGTTGATAGCATCTGTCGACG ) is -0.59

CGTAAAAGTTCAACTAAGGTAACGTAAAGCACGC has a reported PBM binding z-score of 3.97

sequence ATACCAAGGTGATCGTGAGGTCGTTGAAACTAAC , PBM binding z-score observed: 1.6

Entry CAAACTAGGTCAAGGTCACAGTCGGTTTGTGCCA — recorded PBM binding z-score = 4.15

Notebook: GCTAGCAGGCCATTTGGTTCACTCAATGACGGGC , PBM binding z-score read as -0.649

Looking up GCTGCTAGGTCAACTGATGGTCAGTTAAAGCTCG , I found its PBM binding z-score recorded as 2.35

# sequence TAGCCTAGGTCAGAACGGGCCAGTATACGCTATA ; its PBM binding z-score = 0.47

The value of PBM binding z-score measured for the sequence TCTATTAGTTGAAGGGCAACCGACGAGTCCGTTT turned out to be 0.682

What the record says about CAAACTAGGTCAAGAGGTCAAAGTCCGCTTCCCG : PBM binding z-score is 5.7

Entry under test: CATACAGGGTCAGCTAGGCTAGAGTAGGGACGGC . Its PBM binding z-score was 2.06

The recorded PBM binding z-score for entry CGAACTAGGTCAGAACAGAACAGTGAAGGATGAT equals 0.401

The recorded PBM binding z-score for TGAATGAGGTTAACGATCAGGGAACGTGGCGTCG is 0.806

Value of measured PBM binding z-score for the entry AGAATGAGGTTATACGTAGTTCAGGGAAGAAAGT : 1.93

Notebook: CGAACTAGGTCCTCCAGGACAGTGAATACATTGA , PBM binding z-score read as -0.492

The sequence listed as AGAATCAGGTTATACGTAGATCAGGGAAGAAAGT has a reported PBM binding z-score of 0.875

Per the records, this sequence ( CCTAGTTGGTCATGAGGTCACACACCGGATATGA ) has PBM binding z-score equal to 4

Entry ACTATTAGTTGAGACGAGGGCTACCGATAGGTTG — recorded PBM binding z-score = -0.414

For record CCAACTAGGTCACAGAGGTCAAAGTCCGTGCGTA the listed PBM binding z-score is 6.53

GCTTGTAGATCAAGGTTAAGAGAGACTAAGCTAA yielded PBM binding z-score of 0.119

PBM binding z-score reported for this sequence TCCATTAGTTGATTAGGGCAACCGAAACAGCGGA : 0.197

Lab note: GGAACGAGGGCAAAGTTGATAGAATCTGTCGACG gave PBM binding z-score of 1.01

Value of PBM binding z-score reported for the sequence ATCGCAAGGTCGAAGGTGAGTATACCCACCCGAA is 1.16
